Cited source for all entries: patent US20060079453A1

# Study target: H-2Dd (Mus musculus, UniProt P01900)
# Sequence (P01900 25-365): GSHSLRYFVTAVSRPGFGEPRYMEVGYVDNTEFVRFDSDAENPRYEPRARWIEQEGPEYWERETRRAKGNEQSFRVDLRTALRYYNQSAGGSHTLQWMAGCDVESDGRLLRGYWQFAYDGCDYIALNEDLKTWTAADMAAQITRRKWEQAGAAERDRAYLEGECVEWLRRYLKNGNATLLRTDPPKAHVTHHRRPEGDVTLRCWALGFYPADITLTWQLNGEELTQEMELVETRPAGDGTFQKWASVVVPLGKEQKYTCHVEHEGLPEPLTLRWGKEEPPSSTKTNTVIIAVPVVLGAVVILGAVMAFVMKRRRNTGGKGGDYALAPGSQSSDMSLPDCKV
# Sequence (P61769 21-119, further chain): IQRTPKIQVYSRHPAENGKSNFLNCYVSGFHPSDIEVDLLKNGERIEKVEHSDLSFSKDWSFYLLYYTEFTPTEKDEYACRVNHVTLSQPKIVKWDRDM
# Protocol summary: biochemical
# Assay type: binding, murine
No end group written: not given here.
Recorded metric: IC50 (nM)
Please respond with the number in nM and leave the unit unwritten.

Here is how some sequences turned out for IC50.
{"Entry sequence": "RGPGRYFVTI", "Study target": "H-2Dd (Mus musculus, UniProt P01900)", "Recorded metric": "IC50", "Unit text": "nM", "Experimental result": 2.7}
{"Entry sequence": "RGPYRAFVAI", "Study target": "H-2Dd (Mus musculus, UniProt P01900)", "Recorded metric": "IC50", "Unit text": "nM", "Experimental result": 1.3}
{"Entry sequence": "RGAYRAFVTI", "Study target": "H-2Dd (Mus musculus, UniProt P01900)", "Recorded metric": "IC50", "Unit text": "nM", "Experimental result": 3.4}

What IC50 value was documented for this sequence, "GGAYRLIVF" ?
3.5

Check "RGPYRAFVKI" too.
3.9

Check "RGPARAFVTI" too.
1.04

Check "WGPSLYSI" too.
17

Check "RGPYRAFATI" too.
2.1

Check "RGPGRAFYTI" too.
7.2

Check "RGPYRAAVTI" too.
2

Check "FSPRRNGYL" too.
2.7

Check "RGPYRAFKTI" too.
2.3

Check "RGPYRKFVTI" too.
3.6

Check "RGPYKAFVTI" too.
13

Check "RGKYRAFVTI" too.
67

Check "RGPFRAFVTI" too.
0.78

Check "AGPYRAFVTI" too.
5

Check "RGPYRAYVTI" too.
2.1

Check "WGPSLYSIL" too.
6.6
